- assay remarks: Pharmacokinetics of subcutaneous LEN in pigtail macaques
- Assay type: in vivo, pigtail macaques (Macaca nemestrina)
- condition context: male, monkey, plasma, Cmax (mean peak plasma concentration after second dose); 50 mg/kg SC on Study Day 0 and 42, PTM, N = 3, mean ± SD; read-out: Cmax (mean peak plasma concentration after second dose)
readout name: Cmax (nM)

compound	readout name	assay value
CC(C)(C#Cc1ccc(-c2ccc(Cl)c3c(NS(C)(=O)=O)nn(CC(F)(F)F)c23)c([C@H](Cc2cc(F)cc(F)c2)NC(=O)Cn2nc(C(F)(F)F)c3c2C(F)(F)[C@@H]2C[C@H]32)n1)S(C)(=O)=O [LEN, Lenacapavir]	Cmax	295

* * *

- assay remarks: Pharmacokinetics of subcutaneous LEN in pigtail macaques
- Type: in vivo, pigtail macaques (Macaca nemestrina)
- condition context: male, monkey, plasma, Cmax (mean peak plasma concentration after second dose); 15 mg/kg SC on Study Day 0 and 42, PTM, N = 3, mean ± SD; read-out: Cmax (mean peak plasma concentration after second dose)

compound	Cmax (nM)
CC(C)(C#Cc1ccc(-c2ccc(Cl)c3c(NS(C)(=O)=O)nn(CC(F)(F)F)c23)c([C@H](Cc2cc(F)cc(F)c2)NC(=O)Cn2nc(C(F)(F)F)c3c2C(F)(F)[C@@H]2C[C@H]32)n1)S(C)(=O)=O [LEN, Lenacapavir]	68

* * *

- assay remarks: Pharmacokinetics of subcutaneous LEN in pigtail macaques
- Type: in vivo, pigtail macaques (Macaca nemestrina)
- condition context: 15 mg/kg SC on Study Day 0 and 42, PTM, N = 3, mean ± SD; read-out: Cmax (mean peak plasma concentration after second dose)
readout name: Cmax (nM)

compound	value units	assay value
CC(C)(C#Cc1ccc(-c2ccc(Cl)c3c(NS(C)(=O)=O)nn(CC(F)(F)F)c23)c([C@H](Cc2cc(F)cc(F)c2)NC(=O)Cn2nc(C(F)(F)F)c3c2C(F)(F)[C@@H]2C[C@H]32)n1)S(C)(=O)=O [LEN, Lenacapavir]	nM	67.8

* * *

- assay remarks: Pharmacokinetics of subcutaneous LEN in pigtail macaques
- Format: in vivo, pigtail macaques (Macaca nemestrina)
- condition context: male, monkey, in vivo, sc, 25 mg/kg, 25 mg/kg single SC dose on Study Day 0, PTM, N = 3, mean ± SD; read-out: t1/2 (converted)

line notation	value units	half-life
CC(C)(C#Cc1ccc(-c2ccc(Cl)c3c(NS(C)(=O)=O)nn(CC(F)(F)F)c23)c([C@H](Cc2cc(F)cc(F)c2)NC(=O)Cn2nc(C(F)(F)F)c3c2C(F)(F)[C@@H]2C[C@H]32)n1)S(C)(=O)=O	days	38.5

* * *

- assay remarks: Pharmacokinetics of subcutaneous LEN in pigtail macaques
- Assay type: in vivo, pigtail macaques (Macaca nemestrina)
- condition context: male, pigtail macaque, in vivo; 25 mg/kg single SC dose, 30 days after dosing, range of 3 animals; read-out: plasma LEN concentrations at the time of stHIV-A19 challenge

line notation	concentration at 30 days
CC(C)(C#Cc1ccc(-c2ccc(Cl)c3c(NS(C)(=O)=O)nn(CC(F)(F)F)c23)c([C@H](Cc2cc(F)cc(F)c2)NC(=O)Cn2nc(C(F)(F)F)c3c2C(F)(F)[C@@H]2C[C@H]32)n1)S(C)(=O)=O	8.6 to 51.2 nM

* * *

- assay remarks: Pharmacokinetics of subcutaneous LEN in pigtail macaques
- Assay type: in vivo, pigtail macaques (Macaca nemestrina)
- condition context: male, monkey, in vivo, sc, 50 mg/kg, 50 mg/kg SC, after second dose, PTM; read-out: mean terminal half-life (t1/2) (converted)
readout name: half-life (days)

compound	readout name	assay value
CC(C)(C#Cc1ccc(-c2ccc(Cl)c3c(NS(C)(=O)=O)nn(CC(F)(F)F)c23)c([C@H](Cc2cc(F)cc(F)c2)NC(=O)Cn2nc(C(F)(F)F)c3c2C(F)(F)[C@@H]2C[C@H]32)n1)S(C)(=O)=O [LEN, Lenacapavir]	half-life	48

* * *

- assay remarks: Pharmacokinetics of subcutaneous LEN in pigtail macaques
- Format: in vivo, pigtail macaques (Macaca nemestrina)
- condition context: male, monkey, in vivo, sc, 15 mg/kg, 15 mg/kg SC, after second dose, PTM; read-out: mean terminal half-life (t1/2) (converted)
readout name: half-life (days)

compound	readout name	value units	assay value
CC(C)(C#Cc1ccc(-c2ccc(Cl)c3c(NS(C)(=O)=O)nn(CC(F)(F)F)c23)c([C@H](Cc2cc(F)cc(F)c2)NC(=O)Cn2nc(C(F)(F)F)c3c2C(F)(F)[C@@H]2C[C@H]32)n1)S(C)(=O)=O [LEN, Lenacapavir]	half-life	days	42
